Target: human ether-à-go-go-related gene (hERG) potassium channel (human)
Assay: primary screen, population patch clamp on CHO cells stably expressing hERG; higher = less effect of the substance
Screen size: about 310,000 compounds; about 14,000 (4.5%) showed an effect of 50% or more. Effects have a minus sign here. What follows is part of a selection rich in strong results, with near analogues and random picks from the rest.
List of hERG current change (%, negative = inhibition) at 10uM values.

Which measured hERG current change (%, negative = inhibition) at 10uM belongs to `COc1ccc(CCNC(=O)c2c[nH]c3ccccc3c2=O)cc1OC` , tested on human ether-à-go-go-related gene (hERG) potassium channel (human)?
-1.95%

----------
Biological target: human ether-à-go-go-related gene (hERG) potassium channel (human, UniProt Q12809)
Sequence (Q12809 whole entry, looked up): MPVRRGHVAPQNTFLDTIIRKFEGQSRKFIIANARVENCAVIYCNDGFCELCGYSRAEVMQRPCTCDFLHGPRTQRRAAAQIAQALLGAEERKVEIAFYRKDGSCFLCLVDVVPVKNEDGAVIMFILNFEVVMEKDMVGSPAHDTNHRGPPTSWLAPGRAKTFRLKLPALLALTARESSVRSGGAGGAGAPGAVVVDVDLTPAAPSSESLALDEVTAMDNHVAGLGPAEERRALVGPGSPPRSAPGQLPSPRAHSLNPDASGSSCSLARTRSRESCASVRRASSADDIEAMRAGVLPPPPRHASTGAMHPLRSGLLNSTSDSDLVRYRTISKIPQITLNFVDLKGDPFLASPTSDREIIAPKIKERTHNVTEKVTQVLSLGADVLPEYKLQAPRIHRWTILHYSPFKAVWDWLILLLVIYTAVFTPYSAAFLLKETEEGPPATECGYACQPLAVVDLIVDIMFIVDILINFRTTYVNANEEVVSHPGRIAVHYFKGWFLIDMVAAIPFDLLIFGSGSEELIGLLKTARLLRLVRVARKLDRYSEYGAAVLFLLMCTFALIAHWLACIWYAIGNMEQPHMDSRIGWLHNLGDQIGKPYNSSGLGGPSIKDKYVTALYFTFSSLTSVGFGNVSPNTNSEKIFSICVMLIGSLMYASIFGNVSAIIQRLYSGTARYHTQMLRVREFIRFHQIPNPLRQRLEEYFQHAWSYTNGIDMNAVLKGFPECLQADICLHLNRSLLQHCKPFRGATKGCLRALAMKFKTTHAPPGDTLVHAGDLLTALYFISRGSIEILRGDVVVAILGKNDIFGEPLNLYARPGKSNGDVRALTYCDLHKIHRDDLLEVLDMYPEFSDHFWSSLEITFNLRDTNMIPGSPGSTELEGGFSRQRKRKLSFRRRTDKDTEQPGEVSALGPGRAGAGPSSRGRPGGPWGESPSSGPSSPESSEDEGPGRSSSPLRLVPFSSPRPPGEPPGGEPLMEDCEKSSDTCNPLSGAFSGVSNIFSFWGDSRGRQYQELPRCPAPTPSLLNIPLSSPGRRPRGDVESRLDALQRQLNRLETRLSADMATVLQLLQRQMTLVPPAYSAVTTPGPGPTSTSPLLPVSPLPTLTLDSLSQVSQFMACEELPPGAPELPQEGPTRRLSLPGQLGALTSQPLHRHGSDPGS
Assay: primary screen, population patch clamp on CHO cells stably expressing hERG; higher = less effect of the substance
The whole screen tested about 310,000 compounds, of which about 14,000 (4.5%) showed an effect of 50% or more. The effect is printed as a negative number. The sample holds strong results, similar compounds and a random draw of the others, so the mix is not that of the screen.
Measured hERG current change (%, negative = inhibition) at 10uM, listed per entry for reference.
State just the number; it will be interpreted in %.

Look over these answered cases.
In [3]: df
Out[3]:
                                   compound  reading_unit  readout_number
0  O=C(NC(Cc1ccccc1)C(=O)O)/C(=C\c1cccc([N+](=O)[O-])c1)NC(=O)c1ccco1 (centres unmarked)             %            28.4
1  COC(=O)C1=C(c2ccc(-c3ccccc3)c(F)c2)C[C@@H]2CC[C@H]1N2C(=O)NC(C)C             %           -16.8
2  O=C(OCc1ccccc1)/C(=C/c1cccc(Br)c1)NC(=O)c1ccco1             %           -52.5
3  O=C(OCc1ccccc1)/C(=C/c1cccc([N+](=O)[O-])c1)NC(=O)c1ccco1             %           -63.3
4  CCCn1c(SCC(=O)N2CCN(c3ccc(OC)cc3)CC2)nc2c1c(=O)n(C)c(=O)n2C             %             -36
5  CC(C)n1c(SCC(=O)N2CCN(C)CC2)nc2c1c(=O)n(C)c(=O)n2C             %            2.15
6  O=C(NC(Cc1ccccc1)C(=O)O)/C(=C/c1cccc([N+](=O)[O-])c1)NC(=O)c1ccco1 (centres unmarked)             %           -11.4

Which measured hERG current change (%, negative = inhibition) at 10uM value corresponds to N#CC1=C(SCc2ccccc2)NC(=O)CC1c1ccco1 (centres unmarked) ?
10.9

----------
Target: human ether-à-go-go-related gene (hERG) potassium channel (human)
Assay: primary screen, population patch clamp on CHO cells stably expressing hERG; higher = less effect of the substance
The campaign covered roughly 310,000 compounds. About 14,000 (4.5%) showed an effect of 50% or more. Effects have a minus sign here. The full list was thinned out, with strong results kept by preference.
// reported hERG current change (%, negative = inhibition) at 10uM per item
Write the value in % as a bare number.

Worked cases, answers included:
                              record_smiles  readout_number
0  CCOc1ccc(Nc2nc(N3CCOCC3)nc(N3CCOCC3)n2)cc1           -17.9
1  CC[N+](CC)(CC)CC(=O)Nc1ccc(SC(F)F)cc1.[Cl-]           -3.41
2  Clc1ccc(Nc2nc(NCCN3CCOCC3)nc(N3CCOCC3)n2)cc1             -56

Please tell me: hERG current change (%, negative = inhibition) at 10uM of `COc1nc(NCCN2CCOCC2)nc(Nc2ccccc2)n1` , system human ether-à-go-go-related gene (hERG) potassium channel (human)?
-50.5

Request - read-out hERG current change (%, negative = inhibition) at 10uM | tested on human ether-à-go-go-related gene (hERG) potassium channel (human) | compound `C=CCNc1nc(NCCN2CCOCC2)nc(N2CCOCC2)n1`;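 further: peak tail current of the secondary pulse compared with the same well before compound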
18.6

Any idea what hERG current change (%, negative = inhibition) at 10uM came out for `Clc1ccc(CNc2nc(N3CCOCC3)nc(N3CCOCC3)n2)cc1` on human ether-à-go-go-related gene (hERG) potassium channel (human)?
-20

----------
Target: human ether-à-go-go-related gene (hERG) potassium channel (human);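 further: peak tail current of the secondary pulse compared with the same well before compound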
Assay: primary screen, population patch clamp on CHO cells stably expressing hERG; higher = less effect of the substance
Among all 310,000 compounds or so, about 14,000 (4.5%) showed an effect of 50% or more. Effects have a minus sign here. What follows is part of a selection rich in strong results, with near analogues and random picks from the rest.
Documented hERG current change (%, negative = inhibition) at 10uM across a set of compounds
I only need the number, in %, no unit after it.

Past entries and their recorded results:
>>> print(df.to_string())
                              record_smiles  readout_number
0  Cl.O=C(c1cc2ccccc2o1)N1CCN(Cc2ccccc2)CC1           -32.6
1  COc1ccc(N(CC(=O)Nc2ccccc2C(=O)N2CCOCC2)S(=O)(=O)c2ccc(F)cc2)cc1           -44.6
2   Cl.O=C(c1ccco1)N1CCN(C/C=C/c2ccccc2)CC1             -38
3  COc1ccc(N(CC(=O)Nc2ccccc2C(=O)N2CCCC2)S(=O)(=O)c2ccccc2)cc1           -51.8
4  CCOc1ccc(N(CC(=O)Nc2ccccc2C(=O)N2CCCC2)S(C)(=O)=O)cc1            2.43
5  Cc1ccc(S(=O)(=O)N2CCCN(C(=O)c3ccc(-n4cccn4)cc3)CC2)cc1           -74.2
6        COC(=O)c1c(-c2ccccc2)noc1-c1ccccc1            2.19
7  O=C(c1ccc(Br)s1)N1CCN(C/C=C/c2ccccc2)CC1           -40.6

We now examine a further compound.
Any idea what its hERG current change (%, negative = inhibition) at 10uM is? The compound is `O=C(c1ccc(Br)o1)N1CCN(C/C=C/c2ccccc2)CC1`
-61.8

----------
Target: human ether-à-go-go-related gene (hERG) potassium channel (human);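 further: peak tail current of the secondary pulse compared with the same well before compound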
Assay: primary screen, population patch clamp on CHO cells stably expressing hERG; higher = less effect of the substance
In all, about 310,000 compounds went through this assay and about 14,000 (4.5%) showed an effect of 50% or more. The effect is printed as a negative number. This excerpt belongs to a sample that is enriched for strong results.
Mark Met for reported hERG current change (%, negative = inhibition) at 10uM of -20% or greater; mark Not met for anything smaller.

>>> print(df.to_string())
                                   molecule      cat
0  O=C(CN1CCN(C(=O)c2ccco2)CC1)Nc1ccc(Br)cc1      Met
1  Cc1c(CN2CCCC(C(=O)c3cccc(Cl)c3)C2)c(=O)n(-c2ccccc2)n1C (centres unmarked)  Not met
2  COc1cccc(C(=O)C2CCCN(Cc3cccn3-c3ccccn3)C2)c1 (centres unmarked)  Not met

Check if hERG current change (%, negative = inhibition) at 10uM >= -20% (inclusive). Item: `Cl.O=C(CN1CCN(C(=O)c2cccs2)CC1)NC1CCCCC1`
Met

Answer whether hERG current change (%, negative = inhibition) at 10uM of `O=C(NCCN1CCN(C(=O)c2cccs2)CC1)C(=O)Nc1ccc(Br)cc1` is greater than or equal to -20%.
Not met

----------
Target: human ether-à-go-go-related gene (hERG) potassium channel (human);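 further: peak tail current of the secondary pulse compared with the same well before compound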
Experiment: primary screen, population patch clamp on CHO cells stably expressing hERG; higher = less effect of the substance
The whole screen tested about 310,000 compounds, of which about 14,000 (4.5%) showed an effect of 50% or more. Effects have a minus sign here. This excerpt belongs to a sample that is enriched for strong results.
Would you please tag the item criterion met when its hERG current change (%, negative = inhibition) at 10uM is -20% or above, and criterion not met when it is below?

In [3]: df
Out[3]:
                                   compound                cat
0  O=C(c1cc(F)c(F)cc1Cl)N1CCN(CCc2ccccc2)CC1  criterion not met
1  C[C@@H]1C(=O)O[C@H]2[C@H]1CC[C@@]1(C)C(=O)C=C[C@@](C)(O)[C@H]21      criterion met
2       Cc1nc(SCC(=O)NC2CC2)c2c(C)c(C)sc2n1      criterion met
3  CCCCN(C(=O)Cc1ccc(S(=O)(=O)N2CCOCC2)s1)c1c(N)n(CCCC)c(=O)[nH]c1=O      criterion met
4  OC(CN1CCN(c2cccc(Cl)c2)CC1)c1ccc(F)cc1 (centres unmarked)  criterion not met
5  CCN1CCN(CCCNC(=O)c2ccc(NC(=O)C3=C(C)OCCS3)cc2)CC1      criterion met
6    COc1ccc(N2CCN(C(=O)c3ccc(Br)o3)CC2)cc1      criterion met
7  C/C(CC(=O)Nc1ccccc1)=N\NC(=O)COc1ccc(C)cc1Br      criterion met

Could you tell me if the measured hERG current change (%, negative = inhibition) at 10uM of `O=C(c1ccncc1)N1CCN(CCc2ccccc2)CC1` reaches -20% or more?
criterion not met

Would you say Cc1cccc(OCC(O)CN2CCN(c3ccccn3)CC2)c1C.Cl (centres unmarked) shows hERG current change (%, negative = inhibition) at 10uM at minimum -20%?
criterion not met

Form field: hERG current change (%, negative = inhibition) at 10uM at least -20%? Entry: Cc1cccc(C)c1OCC(O)CN1CCN(c2ccccn2)CC1 (centres unmarked)
criterion not met

Check this compound for hERG current change (%, negative = inhibition) at 10uM at or above -20%: `Cc1ccc(S(=O)(=O)c2c(C)cc(C)[nH]c2=O)cc1`
criterion met

Determine whether measured hERG current change (%, negative = inhibition) at 10uM meets or exceeds -20% for `CCO[C@H]1OC(C(=O)NCc2ccccc2)=C[C@@H](c2cn(C(C)=O)c3ccccc23)[C@@H]1CCCO`
criterion not met

I'd appreciate it if you could say whether `O=C(c1ccc(Br)o1)N1CCN(CCc2ccncc2)CC1` has hERG current change (%, negative = inhibition) at 10uM at least equal to -20%.
criterion not met

Is hERG current change (%, negative = inhibition) at 10uM for `O=C(c1ccc(Br)o1)N1CCN(Cc2ccccc2Cl)CC1` at or above -20%?
criterion met

Form field: hERG current change (%, negative = inhibition) at 10uM at least -20%? Entry: `O=C(NNC(=O)c1cc(Cl)ccc1O)c1ccc(NS(=O)(=O)c2cccs2)cc1`
criterion not met

Does the reported hERG current change (%, negative = inhibition) at 10uM for CC(C)(C)c1ccccc1OCC(O)CN1CCN(c2ccccn2)CC1.Cl (centres unmarked) fall at or above the -20% mark?
criterion not met

Quick check, hERG current change (%, negative = inhibition) at 10uM >= -20%? Cc1cc(C)c(C)c(OCC(O)CN2CCN(c3ccccn3)CC2)c1.Cl (centres unmarked)
criterion not met

Does the compound O=S(=O)(c1ccccc1)C(/C=N\O)/C=C/c1ccccc1 (centres unmarked) have recorded hERG current change (%, negative = inhibition) at 10uM that is -20% or more?
criterion met

Hello, I need to know if `CN(Cc1nc2ccccc2[nH]1)Cc1nc(CC2CC2)no1` has measured hERG current change (%, negative = inhibition) at 10uM not below -20%. Thanks!
criterion met
